Target: CaRvs167
Assay: SPOT peptide array binding signal intensity (averaged, normalized) (arbitrary units (background-subtracted, floor 0; scale differs between SH3 domains)); higher = stronger binding of the SH3 domain to the peptide
measurement_name: SPOT peptide array binding signal intensity

| binder | censor_symbol | measurement |
| --- | --- | --- |
| WTQRRGPLVVYAEDN | = | 12.2 |
| QRKSLRRPTLSKPAV | = | 17.5 |
| SLSRRRFSLPSMPNV | = | 27 |
| VRTRRRPPPPPIPST | = | 48.5 |
| PSPSSSPPPIPKTAN | ≤ | 0 |
| GDHPKGPPPPPPPPD | = | 0.333 |
| ATNVPVAPPPPPASL | ≤ | 0 |
| RMVRRRPLRVQFSAR | = | 190 |
| LEFRAILFIPKRAPF | = | 224 |
| QQNRPLPQLPNRNNR | = | 1040 |
| NHSRSLFSLPGNQQS | = | 54.7 |
| PLQSKIPMLPSRRTM | = | 1060 |
| FPGKKSPRLPHRNKK | = | 247 |
| PKRRAPPPVPKKPSS | = | 104 |
| APKREAPKPPANTSP | = | 0.5 |
